Molecular target: human mGluR5d (Homo sapiens)
Sequence (P41594 21-942 isoform P41594-3 limits assumed): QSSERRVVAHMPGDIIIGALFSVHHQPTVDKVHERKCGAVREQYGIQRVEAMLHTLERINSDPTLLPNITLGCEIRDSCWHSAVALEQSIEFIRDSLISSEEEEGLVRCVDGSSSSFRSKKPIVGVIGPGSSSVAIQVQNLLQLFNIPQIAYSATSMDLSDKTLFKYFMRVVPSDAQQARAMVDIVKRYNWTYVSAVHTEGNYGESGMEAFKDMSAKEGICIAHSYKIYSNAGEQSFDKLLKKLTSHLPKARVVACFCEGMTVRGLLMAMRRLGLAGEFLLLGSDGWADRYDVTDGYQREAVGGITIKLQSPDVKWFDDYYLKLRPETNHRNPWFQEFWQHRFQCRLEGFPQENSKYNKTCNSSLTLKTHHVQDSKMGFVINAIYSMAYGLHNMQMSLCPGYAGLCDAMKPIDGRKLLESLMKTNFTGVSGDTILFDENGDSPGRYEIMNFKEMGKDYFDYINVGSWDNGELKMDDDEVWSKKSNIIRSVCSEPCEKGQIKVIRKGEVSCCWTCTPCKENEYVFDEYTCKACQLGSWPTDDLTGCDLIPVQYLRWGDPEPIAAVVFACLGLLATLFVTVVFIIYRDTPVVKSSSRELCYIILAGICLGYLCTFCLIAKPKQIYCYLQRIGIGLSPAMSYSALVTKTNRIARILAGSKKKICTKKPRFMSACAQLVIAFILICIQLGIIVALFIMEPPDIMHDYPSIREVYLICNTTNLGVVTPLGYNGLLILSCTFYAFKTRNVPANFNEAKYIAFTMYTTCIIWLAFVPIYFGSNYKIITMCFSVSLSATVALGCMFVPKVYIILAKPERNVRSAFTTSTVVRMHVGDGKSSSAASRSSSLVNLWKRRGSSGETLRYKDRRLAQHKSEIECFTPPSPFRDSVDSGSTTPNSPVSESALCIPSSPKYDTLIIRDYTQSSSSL
Test: Functional assessment of mGluR5 antagonism in cell lines expressing mGluR5d (FLIPR calcium mobilization / IP3 turnover; which assay gave the values is not stated)
Settings: cells expressing human mGluR5d; assay (FLIPR or IP3) not specified
Procedure: The pharmacological properties of the compounds of the invention can be analyzed using standard assays for functional activity. […] Intracellular calcium mobilization was measured by detecting changes in fluorescence of cells loaded with the fluorescent indicator fluo-3. Fluorescent signals were measured using the FLIPR system (Molecular Devices). […] The properties of the compounds of the invention can be analyzed using standard assays for pharmacological activity. […]
readoutType: IC50 (nM)

I = CC(c1noc(-c2cccc(Cl)c2)n1)N1CCN(c2nccnc2C#N)CC1 (centres unmarked)
II = N#Cc1ccc(N2CCN(Cc3cc(-c4cc(Cl)ccc4F)on3)CC2)nc1
// which entry has the larger IC50 value, I or II ? Output the label that corresponds to your choice.
II
